Tested on: cool season plant species
Experiment: B2 Post-emergence efficacy Test 2, cool season plant species
Format: in vivo
Settings: POLCO, 15 g/Ha, 15 days after application, 0=no damage, 100=total kill
result_type: Herbicidal activity (0-100 scale) POLCO

# chem_smiles, result_type, observed_result
measured = [
    ("Cc1nn(C)c(=O)c(-c2c(F)ccc(Cl)c2CCc2ccccc2C(F)(F)F)c1O", "Herbicidal activity (0-100 scale) POLCO", 70),
    ("Cc1nn(C)c(=O)c(-c2c(F)ccc(Cl)c2CCc2ccc(F)cc2)c1OC(=O)C(C)C", "Herbicidal activity (0-100 scale) POLCO", 90),
    ("Cc1nn(C)c(=O)c(-c2c(F)ccc(Cl)c2CCc2ccc(F)cc2)c1O", "Herbicidal activity (0-100 scale) POLCO", 60),
    ("Cc1nn(C)c(=O)c(-c2c(F)ccc(Cl)c2CCc2ccc(C#N)cc2)c1O", "Herbicidal activity (0-100 scale) POLCO", 80),
]
